Consider the following molecules and their measured growth readings.
Tested on: HS 578T breast
test.name: NCI-60 one-dose screen, 48 h (100 = growth as untreated, 0 = no growth, -100 = all killed)
condition.info: 10 µM unless noted
This is part of a sample that, as a whole, favours compounds with a hit. Of some 83,000 tested, about 20% had one in any assay.
parameter: growth (%)

{"molecule": "Clc1ccc(Nc2nnc(COc3ccccc3)c3ccccc23)cc1", "result.units": "%", "measured": 14.4}
{"molecule": "COc1ccc(/C(C)=C(/c2ccc(OCCCN(C)C)cc2)c2ccc(OC(=O)Cc3ccccc3)cc2)cc1", "result.units": "%", "measured": 56.5}
{"molecule": "COc1ccc(OC)c(-c2c(C#N)c(-c3cccs3)nc3c2c(-c2ccccc2)nn3-c2ccccc2)c1", "result.units": "%", "measured": 87.7}
{"molecule": "O=C1/C(=C\\c2cn(-c3ccccc3)nc2-c2ccc(-c3cccs3)cc2)CCc2ccccc21", "result.units": "%", "measured": 81.8}
{"molecule": "COc1cc(NC(C)CCCNC(C)C)c2ncccc2c1OC (stereo unspecified)", "result.units": "%", "measured": 91.9}
{"molecule": "O=C(CSc1nc2ccc([N+](=O)[O-])cc2[nH]1)Nc1cccc(C(F)(F)F)c1", "result.units": "%", "measured": 24.8}

* * *

System: COLO 205 colon
test.name: NCI-60 one-dose screen, 48 h (100 = growth as untreated, 0 = no growth, -100 = all killed)
condition.info: 10 µM unless noted
About 83,000 compounds went through this panel and 20% of them were active in at least one assay; those are over-represented in the sample as a whole.
Rule: growth below 80% gives class 1. Equal to or above 80% gives class 0.

{"molecule": "Cc1c(-c2nc3ccc(F)cc3c(=O)[nH]2)c2ccccc2n1C", "target.system": "COLO 205 colon", "class": "class 1"}
{"molecule": "CCN1C(=O)N(CC)C2C1NN=c1s/c(=C\\c3cccc([N+](=O)[O-])c3)c(=O)n12 (stereo not given)", "target.system": "COLO 205 colon", "class": "class 1"}
{"molecule": "CC(=O)Cc1nsc(NC(=O)c2cc(-c3cc(Cl)cc(Cl)c3)oc2C)n1", "target.system": "COLO 205 colon", "class": "class 0"}

* * *

System: CCRF-CEM leukemia
test.name: NCI-60 one-dose screen, 48 h
condition.info: 10 µM unless noted
The panel holds about 83,000 compounds, 20% with a hit somewhere; the sample as a whole holds those more often. Activity calls are given as the source filed them. Rule for the calls: active = growth percent below 10; inactive = the rest.
Labels: Y for active, N for inactive

{"molecule": "O=C(Nn1c2c(sc1=NCc1ccccc1)C(=O)c1ccccc1C2=O)c1cc2ccc1CCc1ccc(cc1)CC2", "class": "N"}
{"molecule": "CC(C)(C)n1cc(-c2ccnc(NCCNS(=O)(=O)c3cccc(F)c3)c2)c(-c2ccccc2)n1", "class": "N"}
{"molecule": "CCN1C(=O)N(CC)C2C1NN=c1s/c(=C\\c3cccc([N+](=O)[O-])c3)c(=O)n12 (stereo unspecified)", "class": "N"}
{"molecule": "COc1cc(-c2nc(SCCC(C)C)nc(Nc3ccccc3Cl)c2C#N)cc(OC)c1OC", "class": "N"}
{"molecule": "COC(C(=O)[C@@H](O)[C@@H](C)O)[C@@H]1Cc2cc3cc(O[C@H]4C[C@@H](O[C@H]5C[C@@H](O)[C@H](O)C(C)O5)[C@H](O)C(C)O4)cc(O)c3c(O)c2C(=O)[C@H]1O[C@H]1C[C@@H](O[C@H]2C[C@@H](O[C@H]3C[C@@H](OC)[C@H](O)C(C)O3)[C@@H](O)C(C)O2)[C@H](O)C(C)O1 (stereo partly specified)", "class": "N"}
{"molecule": "C=C1C(=O)O[C@H]2[C@H]1CC/C(COC(=O)N[C@H]1C[C@H](O[C@H]3C[C@](O)(C(=O)CO)Cc4c(O)c5c(c(O)c43)C(=O)c3c(OC)cccc3C5=O)O[C@@H](C)[C@H]1O)=C\\CC[C@@]1(C)O[C@@H]21", "class": "Y"}
